Values from patent US8293753B2

- target-or-test-system: PI3Kγ (Homo sapiens, UniProt P48736, Q459R)
- Construct: His (C); made in house; host or cells: Tn5 insect cells; construct obtained from Roger Williams lab (MRC LMB)
- Sequence (P48736 with tags, fused parts or gaps Q459R): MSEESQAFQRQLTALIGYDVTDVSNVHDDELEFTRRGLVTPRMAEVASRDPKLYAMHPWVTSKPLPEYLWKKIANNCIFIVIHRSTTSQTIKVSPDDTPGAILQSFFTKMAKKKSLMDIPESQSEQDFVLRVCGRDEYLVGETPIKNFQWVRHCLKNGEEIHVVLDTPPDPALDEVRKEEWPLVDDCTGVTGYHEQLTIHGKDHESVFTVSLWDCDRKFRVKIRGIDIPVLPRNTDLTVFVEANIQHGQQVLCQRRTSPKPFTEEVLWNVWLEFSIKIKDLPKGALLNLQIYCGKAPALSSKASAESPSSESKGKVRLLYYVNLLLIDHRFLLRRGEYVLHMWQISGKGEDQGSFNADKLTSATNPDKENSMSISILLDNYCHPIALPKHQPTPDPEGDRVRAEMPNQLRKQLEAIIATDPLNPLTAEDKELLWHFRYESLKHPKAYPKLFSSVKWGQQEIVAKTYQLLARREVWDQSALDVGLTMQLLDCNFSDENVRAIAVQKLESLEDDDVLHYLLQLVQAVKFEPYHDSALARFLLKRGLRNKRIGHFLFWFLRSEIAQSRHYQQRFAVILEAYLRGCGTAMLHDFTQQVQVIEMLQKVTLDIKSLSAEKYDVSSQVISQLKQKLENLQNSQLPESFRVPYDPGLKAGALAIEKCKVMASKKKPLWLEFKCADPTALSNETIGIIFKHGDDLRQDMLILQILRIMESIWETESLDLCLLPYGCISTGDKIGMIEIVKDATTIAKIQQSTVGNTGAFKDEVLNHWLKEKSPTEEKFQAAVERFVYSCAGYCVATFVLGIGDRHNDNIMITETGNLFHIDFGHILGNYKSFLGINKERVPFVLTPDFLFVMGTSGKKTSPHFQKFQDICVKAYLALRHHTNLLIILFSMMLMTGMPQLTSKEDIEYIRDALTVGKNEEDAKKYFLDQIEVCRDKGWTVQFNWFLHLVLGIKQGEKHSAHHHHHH
- experimental-protocol: PI3K KinaseGlo assay, PI3Kgamma
- Assay type: biochemical
- study-conditions: selectivity factor: PI3Kgamma IC50 divided by PI3Kalpha IC50
quantity: PI3Kgamma (selectivity)

Cc1nc(NC(=O)N2CC[C@@H](C)[C@H]2C(N)=O)sc1-c1ccnc(C2(C)CC2)c1 [Example 1] ... (25)
Cc1nc(NC(=O)N2CC[C@@H](C)[C@H]2C(N)=O)sc1-c1ccnc(C(C)(C)C(F)(F)F)c1 [Example 2] ... (3)
[2H]C([2H])([2H])C([2H])([2H])N(c1cncc(-c2sc(NC(=O)N3CC[C@@H](C)[C@H]3C(N)=O)nc2C)n1)C([2H])([2H])C([2H])([2H])[2H] [Example 13] ... (104)
[2H]C([2H])([2H])C(c1nccc(-c2sc(NC(=O)N3CC[C@@H](C)[C@H]3C(N)=O)nc2C)n1)(C([2H])([2H])[2H])C([2H])([2H])[2H] [Example 12] ... (16)
Cc1nc(NC(=O)N2CCC(C)(C)C2C(N)=O)sc1-c1ccnc(C2(C)CC2)c1 (racemic) [Example 3] ... (20)
Cc1nc(NC(=O)N2CCC(C)(C)C2C(N)=O)sc1-c1ccnc(C(C)(C)C(F)(F)F)c1 (racemic) [Example 4] ... (18)

Now look at this one.
q: Which value of PI3Kgamma (selectivity) has been reported for Cc1nc(NC(=O)N2CC[C@@H](C)[C@H]2C(N)=O)sc1-c1ccnc(C(C)(C)F)n1 [Example 9] in the records?
a: (20)

====

- target-or-test-system: PI3Kδ (Homo sapiens)
- Construct: p85iSH2(461-568)-GGGGGG-p110δ(2-1044)-His; His (C); made in house; host or cells: baculovirus / Tn5 insect cells
- Sequence (O00329 with tags, fused parts or gaps): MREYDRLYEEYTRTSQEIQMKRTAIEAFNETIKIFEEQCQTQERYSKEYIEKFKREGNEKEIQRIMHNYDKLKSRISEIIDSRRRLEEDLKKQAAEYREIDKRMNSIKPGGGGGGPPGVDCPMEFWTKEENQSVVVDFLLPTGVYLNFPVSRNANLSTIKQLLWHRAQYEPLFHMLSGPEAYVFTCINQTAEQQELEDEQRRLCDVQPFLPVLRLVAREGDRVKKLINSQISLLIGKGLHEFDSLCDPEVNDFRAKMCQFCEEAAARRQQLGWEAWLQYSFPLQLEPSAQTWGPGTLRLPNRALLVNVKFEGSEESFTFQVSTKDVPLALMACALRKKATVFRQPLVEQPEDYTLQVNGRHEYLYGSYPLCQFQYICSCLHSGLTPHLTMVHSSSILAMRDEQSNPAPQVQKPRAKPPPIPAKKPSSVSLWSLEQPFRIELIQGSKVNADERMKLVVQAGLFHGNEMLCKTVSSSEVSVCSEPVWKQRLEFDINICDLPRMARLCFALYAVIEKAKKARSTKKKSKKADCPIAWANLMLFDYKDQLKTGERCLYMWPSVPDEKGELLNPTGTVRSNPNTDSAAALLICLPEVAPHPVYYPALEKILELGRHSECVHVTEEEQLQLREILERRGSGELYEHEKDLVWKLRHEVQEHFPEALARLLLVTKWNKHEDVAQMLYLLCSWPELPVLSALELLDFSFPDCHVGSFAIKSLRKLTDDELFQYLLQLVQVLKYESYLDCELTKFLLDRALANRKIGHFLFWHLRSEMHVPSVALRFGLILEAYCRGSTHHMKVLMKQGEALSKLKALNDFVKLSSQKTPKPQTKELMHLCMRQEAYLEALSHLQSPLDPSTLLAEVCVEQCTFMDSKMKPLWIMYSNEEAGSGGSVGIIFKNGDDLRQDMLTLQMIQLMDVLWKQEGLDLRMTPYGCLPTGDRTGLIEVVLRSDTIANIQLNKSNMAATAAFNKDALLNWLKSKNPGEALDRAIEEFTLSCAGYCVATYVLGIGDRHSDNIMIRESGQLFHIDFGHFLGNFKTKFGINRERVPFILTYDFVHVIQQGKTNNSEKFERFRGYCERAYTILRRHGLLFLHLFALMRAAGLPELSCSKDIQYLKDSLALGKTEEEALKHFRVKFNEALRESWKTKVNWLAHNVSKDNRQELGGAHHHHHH
- experimental-protocol: PI3K KinaseGlo assay, PI3Kdelta
- Assay type: biochemical
- study-conditions: selectivity factor: PI3Kdelta IC50 divided by PI3Kalpha IC50
quantity: PI3Kdelta (selectivity)

Use the examples below as a reference point.
Cc1nc(NC(=O)N2CC[C@@H](CN(C)C)[C@H]2C(N)=O)sc1-c1ccnc(C(C)(C)C(F)(F)F)c1 ... (5)
Cc1nc(NC(=O)N2CC[C@@H](CN3CCOCC3)[C@H]2C(N)=O)sc1-c1ccnc(C(C)(C)C(F)(F)F)c1 ... (8)
COC[C@@H]1CCN(C(=O)Nc2nc(C)c(-c3ccnc(C(C)(C)C(F)(F)F)c3)s2)[C@@H]1C(N)=O ... (9)
Cc1nc(NC(=O)N2CCC(C)(C)C2C(N)=O)sc1-c1ccnc(C(C)(C)C(F)(F)F)c1 (racemic) ... (4)
Cc1nc(NC(=O)N2CC[C@@H](C)[C@H]2C(N)=O)sc1-c1ccnc(C2(C)CC2)c1 ... (24)

q: Which value of PI3Kdelta (selectivity) has been reported for Cc1nc(NC(=O)N2CC[C@@H](C)[C@H]2C(N)=O)sc1-c1ccnc(C(C)(C)F)n1 in the records?
a: (58)

q: Which value of PI3Kdelta (selectivity) has been reported for CC(=O)NC[C@@H]1CCN(C(=O)Nc2nc(C)c(-c3ccnc(C4(C)CC4)c3)s2)[C@@H]1C(N)=O in the records?
a: (13)

====

- target-or-test-system: PI3Kβ (Homo sapiens, UniProt P42338)
- Construct: His (C); made in house; host or cells: baculovirus / Tn5 insect cells
- Sequence (P42338 with tags, fused parts or gaps): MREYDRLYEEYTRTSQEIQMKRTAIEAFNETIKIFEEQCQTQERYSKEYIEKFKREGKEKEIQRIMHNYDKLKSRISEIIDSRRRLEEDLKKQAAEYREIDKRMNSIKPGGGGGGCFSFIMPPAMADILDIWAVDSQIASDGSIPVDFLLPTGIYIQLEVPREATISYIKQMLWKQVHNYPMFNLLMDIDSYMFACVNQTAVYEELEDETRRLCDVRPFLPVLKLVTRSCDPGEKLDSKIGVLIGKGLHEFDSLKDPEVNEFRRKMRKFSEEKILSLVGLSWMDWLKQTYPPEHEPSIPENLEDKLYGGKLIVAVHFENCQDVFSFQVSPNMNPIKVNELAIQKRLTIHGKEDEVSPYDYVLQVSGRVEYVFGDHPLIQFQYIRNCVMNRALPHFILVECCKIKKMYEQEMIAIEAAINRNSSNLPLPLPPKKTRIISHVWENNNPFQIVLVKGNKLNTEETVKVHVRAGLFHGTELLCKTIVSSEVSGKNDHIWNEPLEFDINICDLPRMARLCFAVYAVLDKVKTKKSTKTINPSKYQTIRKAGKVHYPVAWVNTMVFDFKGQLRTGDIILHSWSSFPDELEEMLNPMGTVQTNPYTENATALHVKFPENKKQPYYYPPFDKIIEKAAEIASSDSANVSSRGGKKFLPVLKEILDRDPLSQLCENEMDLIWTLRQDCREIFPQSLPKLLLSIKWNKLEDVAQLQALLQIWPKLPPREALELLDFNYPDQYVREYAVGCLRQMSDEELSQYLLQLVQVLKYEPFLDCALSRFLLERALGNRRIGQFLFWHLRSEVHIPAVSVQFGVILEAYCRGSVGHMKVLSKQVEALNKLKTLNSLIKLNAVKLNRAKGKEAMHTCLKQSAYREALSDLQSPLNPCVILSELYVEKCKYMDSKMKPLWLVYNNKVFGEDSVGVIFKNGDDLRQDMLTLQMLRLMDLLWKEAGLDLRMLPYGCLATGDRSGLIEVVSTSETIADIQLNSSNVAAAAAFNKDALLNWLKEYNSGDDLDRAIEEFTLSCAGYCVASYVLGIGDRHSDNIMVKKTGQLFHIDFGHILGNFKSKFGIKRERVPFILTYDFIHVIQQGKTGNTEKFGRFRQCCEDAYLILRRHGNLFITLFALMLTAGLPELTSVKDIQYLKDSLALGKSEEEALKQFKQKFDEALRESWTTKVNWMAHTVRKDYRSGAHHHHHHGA
- experimental-protocol: PI3K KinaseGlo assay, PI3Kbeta
- Format: biochemical
- study-conditions: selectivity factor: PI3Kbeta IC50 divided by PI3Kalpha IC50
quantity: PI3Kbeta (selectivity)

Cc1nc(NC(=O)N2CC[C@@H](CN3CCOCC3)[C@H]2C(N)=O)sc1-c1ccnc(C(C)(C)C(F)(F)F)c1 ... (380)
[2H]C([2H])([2H])C([2H])([2H])N(c1cncc(-c2sc(NC(=O)N3CC[C@@H](C)[C@H]3C(N)=O)nc2C)n1)C([2H])([2H])C([2H])([2H])[2H] ... (234)
Cc1nc(NC(=O)N2CC[C@@H](C)[C@H]2C(N)=O)sc1-c1ccnc(C(C)(C)F)n1 ... (910)

====

- target-or-test-system: PI3Kβ (Homo sapiens)
- Construct: His (C); made in house; host or cells: baculovirus / Tn5 insect cells
- experimental-protocol: PI3K KinaseGlo assay, PI3Kbeta
- Type: biochemical
- study-conditions: selectivity factor: PI3Kbeta IC50 divided by PI3Kalpha IC50
quantity: PI3Kbeta (selectivity)

Cc1nc(NC(=O)N2CC[C@@H](CN(C)C)[C@H]2C(N)=O)sc1-c1ccnc(C(C)(C)C(F)(F)F)c1 ... (192)
[2H]C([2H])([2H])C(c1nccc(-c2sc(NC(=O)N3CC[C@@H](C)[C@H]3C(N)=O)nc2C)n1)(C([2H])([2H])[2H])C([2H])([2H])[2H] ... (353)
Cc1nc(NC(=O)N2CC[C@@H](C)[C@H]2C(N)=O)sc1-c1ccnc(C2(C)CC2)c1 ... (370)

====

- target-or-test-system: PI3Kα (Homo sapiens)
- Sequence (P42336 with tags, fused parts or gaps): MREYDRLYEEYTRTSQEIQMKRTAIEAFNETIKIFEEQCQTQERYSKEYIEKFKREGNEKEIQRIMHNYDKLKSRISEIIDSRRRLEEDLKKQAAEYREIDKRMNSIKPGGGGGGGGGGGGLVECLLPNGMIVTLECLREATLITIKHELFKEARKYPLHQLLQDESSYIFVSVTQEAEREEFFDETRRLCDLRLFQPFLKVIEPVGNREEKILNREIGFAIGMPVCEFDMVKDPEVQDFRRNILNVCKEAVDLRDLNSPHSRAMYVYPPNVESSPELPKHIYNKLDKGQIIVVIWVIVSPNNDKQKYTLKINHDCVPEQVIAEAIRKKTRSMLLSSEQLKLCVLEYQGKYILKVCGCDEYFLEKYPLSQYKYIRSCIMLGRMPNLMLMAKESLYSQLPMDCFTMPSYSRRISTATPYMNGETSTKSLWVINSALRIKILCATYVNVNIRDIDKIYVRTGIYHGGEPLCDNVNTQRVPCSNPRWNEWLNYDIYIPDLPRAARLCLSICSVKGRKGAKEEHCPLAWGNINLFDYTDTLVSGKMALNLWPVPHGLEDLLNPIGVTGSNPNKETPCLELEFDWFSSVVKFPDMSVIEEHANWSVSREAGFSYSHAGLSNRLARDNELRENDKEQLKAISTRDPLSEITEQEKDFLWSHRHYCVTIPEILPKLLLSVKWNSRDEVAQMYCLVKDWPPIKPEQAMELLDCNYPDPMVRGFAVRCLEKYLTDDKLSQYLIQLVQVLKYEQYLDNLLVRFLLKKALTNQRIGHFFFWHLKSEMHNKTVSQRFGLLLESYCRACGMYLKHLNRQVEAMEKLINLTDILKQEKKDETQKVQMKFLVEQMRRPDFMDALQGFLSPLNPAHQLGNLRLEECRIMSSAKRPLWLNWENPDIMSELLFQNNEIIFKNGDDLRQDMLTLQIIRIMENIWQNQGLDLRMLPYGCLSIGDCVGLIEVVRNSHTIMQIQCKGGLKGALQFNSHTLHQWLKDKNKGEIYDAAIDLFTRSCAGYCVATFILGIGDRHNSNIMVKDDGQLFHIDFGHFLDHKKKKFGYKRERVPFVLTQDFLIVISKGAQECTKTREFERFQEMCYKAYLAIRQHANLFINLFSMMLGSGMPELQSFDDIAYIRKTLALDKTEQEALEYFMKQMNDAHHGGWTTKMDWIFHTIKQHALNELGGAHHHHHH
quantity: IC50 (nM)

Use the examples below as a reference point.
Cc1nc(NC(=O)N2CC[C@@H](C)[C@H]2C(N)=O)sc1-c1ccnc(C2(C)CC2)c1 [Example 1] ... 7
Cc1nc(NC(=O)N2CC[C@@H](CN3CCOCC3)[C@H]2C(N)=O)sc1-c1ccnc(C(C)(C)C(F)(F)F)c1 [Example 8] ... 6

a = Cc1nc(NC(=O)N2CC[C@@H](CN3CCOCC3)[C@H]2C(N)=O)sc1-c1ccnc(C2(C)CC2)c1 [Example 7]
b = Cc1nc(NC(=O)N2CCC(C)(C)C2C(N)=O)sc1-c1ccnc(C(C)(C)C(F)(F)F)c1 (racemic) [Example 4]
q: Which value of IC50 is smaller, the one for a or the one for b ? # answer = label of selected item
a: a

====

Quick record: IC50, PI3Kδ (Homo sapiens).
quantity: IC50 (nM)

a = CC(=O)NC[C@@H]1CCN(C(=O)Nc2nc(C)c(-c3ccnc(C4(C)CC4)c3)s2)[C@@H]1C(N)=O
b = Cc1nc(NC(=O)N2CC[C@@H](C)[C@H]2C(N)=O)sc1-c1ccnc(C(C)(C)C)c1
c = Cc1nc(NC(=O)N2CC[C@@H](C)[C@H]2C(N)=O)sc1-c1ccnc(C(C)(C)F)n1
d = Cc1nc(NC(=O)N2CC[C@@H](CN3CCOCC3)[C@H]2C(N)=O)sc1-c1ccnc(C(C)(C)C(F)(F)F)c1
q: Order the records, beginning with the lowest IC50 and ending with the highest. Order the labels as requested and give them as your answer.
a: d, b, a, c

====

- target-or-test-system: PI3Kβ (Homo sapiens)
- Construct: His (C); made in house; host or cells: baculovirus / Tn5 insect cells
- experimental-protocol: PI3K KinaseGlo assay, PI3Kbeta
- Type: biochemical
- study-conditions: selectivity factor: PI3Kbeta IC50 divided by PI3Kalpha IC50
quantity: PI3Kbeta (selectivity)

CC(=O)NC[C@@H]1CCN(C(=O)Nc2nc(C)c(-c3ccnc(C(C)(C)C(F)(F)F)c3)s2)[C@@H]1C(N)=O ... (76)
Cc1nc(NC(=O)N2CC[C@@H](C)[C@H]2C(N)=O)sc1-c1ccnc(C(C)(C)C(F)(F)F)c1 ... (44)
CC(=O)NC[C@@H]1CCN(C(=O)Nc2nc(C)c(-c3ccnc(C4(C)CC4)c3)s2)[C@@H]1C(N)=O ... (178)
Cc1nc(NC(=O)N2CCC(C)(C)C2C(N)=O)sc1-c1ccnc(C(C)(C)C(F)(F)F)c1 (racemic) ... (76)
COC[C@@H]1CCN(C(=O)Nc2nc(C)c(-c3ccnc(C(C)(C)C(F)(F)F)c3)s2)[C@@H]1C(N)=O ... (122)

q: Which value of PI3Kbeta (selectivity) has been reported for Cc1nc(NC(=O)N2CC[C@@H](C)[C@H]2C(N)=O)sc1-c1ccnc(C(C)(C)C)c1 in the records?
a: (241)

q: Which value of PI3Kbeta (selectivity) has been reported for Cc1nc(NC(=O)N2CC[C@@H](CN3CCOCC3)[C@H]2C(N)=O)sc1-c1ccnc(C2(C)CC2)c1 in the records?
a: (136)

====

Quick record: pIC50, PI3Kβ (Homo sapiens, UniProt P42338).
// pIC50: -log10(molar conc.)

q: Notebook: pull reported pIC50 for PI3Kβ (Homo sapiens, UniProt P42338), entry Cc1nc(NC(=O)N2CC[C@@H](C)[C@H]2C(N)=O)sc1-c1ccnc(C2(C)CC2)c1
a: 5.59

q: Notebook: pull reported pIC50 for PI3Kβ (Homo sapiens, UniProt P42338), entry Cc1nc(NC(=O)N2CC[C@@H](C)[C@H]2C(N)=O)sc1-c1ccnc(C(C)(C)C)c1
a: 5.66
